experiment: Volume of distribution at steady state in monkey at 0.3 mg/kg, iv; assay type: ADME, organism-based, Macaca mulatta; conditions: rhesus monkey, in vivo, read-out: Vdss
observed-property: Vd (L/kg)
Reply with just the number (in L/kg).

Problem: Fill in the blank: the reported Vd of C[C@@H](N[C@H]1CCN(c2ccc(CC(=O)O)cc2)C1)c1cccc2ccccc12.Cl.Cl is ____.
Result: 0.716

* * *

target: UniProt P33261; assay: Inhibition of CYP2C19 (unknown origin); format: ADME
Sequence (P33261 whole entry): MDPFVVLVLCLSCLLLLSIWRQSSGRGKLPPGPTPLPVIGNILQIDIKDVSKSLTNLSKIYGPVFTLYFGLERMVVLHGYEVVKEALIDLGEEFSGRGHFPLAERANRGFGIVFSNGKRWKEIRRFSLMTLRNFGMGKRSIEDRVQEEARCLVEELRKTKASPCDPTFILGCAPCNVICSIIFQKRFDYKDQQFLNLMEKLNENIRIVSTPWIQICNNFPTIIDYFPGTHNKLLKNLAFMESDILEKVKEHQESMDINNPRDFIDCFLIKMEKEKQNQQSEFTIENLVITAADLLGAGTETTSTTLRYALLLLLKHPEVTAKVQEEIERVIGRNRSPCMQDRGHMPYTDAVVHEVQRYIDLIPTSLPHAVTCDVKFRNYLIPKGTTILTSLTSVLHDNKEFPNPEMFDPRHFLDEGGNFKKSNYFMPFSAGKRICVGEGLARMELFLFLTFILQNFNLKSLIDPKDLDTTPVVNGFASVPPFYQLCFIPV
pIC50: −log10 of the molar value.
observed-property: pIC50

Problem: Fill in the blank: the reported pIC50 of C[C@@H](N[C@H]1CCN(c2ccc(CC(=O)O)cc2)C1)c1cccc2ccccc12.Cl.Cl is ____.
Result: < 4.30
